System: PCSK9 gene
Assay: PCSK9 gRNA/SpCas9 editing in primary cynomolgus hepatocytes (Tables 2, 22)
Type: cell-based, cynomolgus monkey
Conditions: 500 ng/RNA/mL; SpCas9 mRNA MS002 1:1 by weight
Protocol: In set of experiments, PCSK9 gRNAs were co-transfected with an equivalent amount (1:1 ratio by weight) of in vitro transcribed commercially available SpCas9 mRNA MS002 purchased from TriLink Biotechnologies into primary human hepatocytes at 2500, 500, or 100 ng/RNA/mL and processed as described in detailed methods. Extracted genomic DNA was analyzed for gene editing at the target site with next-generation sequencing of PCR amplicons generated around the target sites. […]
m = 2'-O-methyl; r = 2'-OH (RNA)
Property label: Cyno Primary Hepatocyte Editing % 500 (%)
Answer in %, number only, no unit symbol.

Req: What measured Cyno Primary Hepatocyte Editing % 500 goes with GA204: PCSK9 gRNA; protospacer CACTCTGTATGCTGGTGTCT (SEQ ID NO: 198) (nucleic acid, sugars from the 5' end m3 r94 m3, linkages s3 o93 s3 (s phosphorothioate, o phosphodiester), T or U not given here) guide: CACUCUGUAUGCUGGUGUCUGUUUUAGAGCUAGAAAUAGCAAGUUAAAAUAAGGCUAGUCCGUUAUCAACUUGAAAAAGUGGCACCGAGUCGGUGCUUUU ?
Resp: 5.27

Req: I would be grateful if you could share the reported Cyno Primary Hepatocyte Editing % 500 for GA241: PCSK9 gRNA; protospacer TGCTGCTGCCCCTGGCGGGT (SEQ ID NO: 234) (nucleic acid, sugars from the 5' end m3 r94 m3, linkages s3 o93 s3 (s phosphorothioate, o phosphodiester), T or U not given here) guide: UGCUGCUGCCCCUGGCGGGUGUUUUAGAGCUAGAAAUAGCAAGUUAAAAUAAGGCUAGUCCGUUAUCAACUUGAAAAAGUGGCACCGAGUCGGUGCUUUU .
Resp: 2.94

Reference source: patent US20250152746A1
